- System: DNA
- assay-info: DNA binding ΔTm
- condition-info: Tables VI(a), VI(c)
Structures can show the parent of a compound that is named as a salt.
experimental-endpoint: DNA binding Δ Tm
Answers are plain numbers.

Examples with their reported DNA binding Δ Tm follow.
1) Cl.Cl.N=C(N)c1ccc(OCCCCOc2ccc(-c3cc4cc(C(=N)N)ccc4o3)cc2)cc1 = 11.8
2) N=C(NO)c1ccc(OCCCOc2ccc(-c3cc4cc(C(=N)NO)ccc4o3)cc2)cc1 = 1.10
3) CC(C)NC(=N)c1ccc2oc(CCCCc3cc4cc(C(=N)NC(C)C)ccc4o3)cc2c1 [Compound 21, dihydrochloride] = 6.60

Which value of DNA binding Δ Tm has been reported for "Cl.Cl.c1cc(C2=NCCN2)ccc1OCCCCCCOc1ccc(-c2cc3cc(C4=NCCN4)ccc3o2)cc1" in the records?
14.4

Just for reference, patent US20080114047A1 is where these values come from.
